# SYSTEM: T1, corticotropin-releasing hormone (CRH) peptide (human and mouse (same sequence), not fully specified)
# T1 peptide: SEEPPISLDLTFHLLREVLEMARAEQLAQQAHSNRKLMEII
# ASSAY_REMARKS: cell-based or functional assay
Kindly supply the reported hCRHR1 Luciferase Reporter Assay IC50 values for the records listed here.
Give bare numbers, in nM.

BINDER: PR302341-55 (antibody, human IgG1, kappa, V domains shown) VH: QVQLVQSGAEVKKPGASVKVSCKASGYTFTDYFMKWVRQAPGQRLEWMGVINPNNADIFYNQKFKGRVTITRDTSASTAYMELSSLRSEDTAVYYCARGTDRALFAYWGQGTLVTVSS VL: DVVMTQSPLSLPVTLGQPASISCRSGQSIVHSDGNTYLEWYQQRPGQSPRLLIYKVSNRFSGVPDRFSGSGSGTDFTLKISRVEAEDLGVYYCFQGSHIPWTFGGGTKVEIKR
RECORDED_NUMBER: 0.105

Below are 3 binders. Give each one its hCRHR1 Luciferase Reporter Assay IC50.
1. PR302341-62 (antibody, human IgG1, kappa, V domains shown) VH: QVQLVQSGAEVKKPGASVKVSCKASGYTFTDYFMKWVRQAPGQRLEWMGVINPNSGDIFYNQKFKGRVTITRDTSASTAYMELSSLRSEDTAVYYCARGTDRALFAYWGQGTLVTVSS VL: DVVMTQSPLSLPVTLGQPASISCRSGQSIVHSEGNTYLEWYQQRPGQSPRLLIYKVSNRFSGVPDRFSGSGSGTDFTLKISRVEAEDLGVYYCFQGSHIPWTFGGGTKVEIKR
2. PR302341-47 (antibody, human IgG1, kappa, V domains shown) VH: QVQLVQSGAEVKKPGASVKVSCKASGYTFTDYFMKWVRQAPGQGLEWMGVINPNSGDIFYNQKFKGRVTMTVDKSTSTAYMELSSLRSEDTAVYYCARGTDRALFAYWGQGTLVTVSS VL: DVVMTQTPLSSPVTLGQPASISCRSGQSIVHSDANTYLEWYQQRPGQPPRLLIYKVSNRFSGVPDRFSGSGAGTDFTLKISRVEAEDLGVYYCFQGSHIPWTFGGGTKVEIKR
3. PR302341 (antibody, human IgG1, kappa, V domains shown) VH: EVQLQQSGPELVKPGASVKMSCKASGYTFTDYFMKWVKQSHGESLEWIGVINPNNGDIFYNQKFKGKATLTVDKSSSTAFMQLNSLTSEDSAVYSCARGTDRALFAYWGQGTLVAVSA VL: DVLMTQTPLSLPVSLGDQASISCRSGQSIVHSDGNTYLEWYLQRPGQSPRLLIYKVSNRFSGVPDRFSGSGSGTDFTLKISRVGAEDLGIYYCFQGSHIPWTFGGGTKLEVKR

2.68
1.04
0.437

# query: hCRHR1 Luciferase Reporter Assay IC50 of entry PR302341-39 (antibody, human IgG1, kappa, V domains shown) VH: QVQLVQSGAEVKKPGASVKVSCKASGYTFTDYFMKWVRQAPGQGLEWMGVINPNNADIFYNQKFKGRVTMTVDKSISTAYMELSRLRSDDTAVYYCARGTDRALFAYWGQGTLVTVSS VL: DVVMTQSPLSLPVTLGQPASISCRSGQSIVHSSGNTYLEWYQQRPGQSPRLLIYKVSNRFSGVPDRFSGSGSGTDFTLKISRVEAEDLGVYYCFQGSHIPWTFGGGTKVEIKR
1.04
